B1: NETO1 (parent)
chain: GFSPIIGRFCGQQNPPVIKSSGRF

Variants of: B1
measurement_notes: protein stability index of a GFP-peptide fusion (GPS, HEK-293T) (PSI 1-6); higher = more stable;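 note: lentivirally expressed fusions sorted by FACS into six bins by GFP to DsRed ratio, PSI derived from sequencing read proportions per bin multiplied by bin number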
details: c terminus: a fixed tail appended
measured_quantity: protein stability index
Provide a numeric answer; units are not to be included.

Please supply the value of reported protein stability index for the item G1Q 2.03

Please supply the value of reported protein stability index for the item F2Y 2.02

Please supply the value of reported protein stability index for the item Q13H 1.88

Please supply the value of reported protein stability index for the item S21P 2.25

Please supply the value of reported protein stability index for the item V17R 2.23

Please supply the value of reported protein stability index for the item F24A 2.42

Please supply the value of reported protein stability index for the item R23A 1.35

Please supply the value of reported protein stability index for the item K19E 2.27

Please supply the value of reported protein stability index for the item S3M 1.84

Please supply the value of reported protein stability index for the item G1F 1.86

Please supply the value of reported protein stability index for the item N14M 1.8

Please supply the value of reported protein stability index for the item C10R 2.63

Please supply the value of reported protein stability index for the item N14Y 1.99

Please supply the value of reported protein stability index for the item C10F 2.51

Please supply the value of reported protein stability index for the item P4G 1.74

Please supply the value of reported protein stability index for the item S20T 1.88

Please supply the value of reported protein stability index for the item G22T 2.11

Please supply the value of reported protein stability index for the item G1I 2

Please supply the value of reported protein stability index for the item S3H 2.03

Please supply the value of reported protein stability index for the item N14P 2.21

Please supply the value of reported protein stability index for the item S20Q 2.67

Please supply the value of reported protein stability index for the item P15K 1.99

Please supply the value of reported protein stability index for the item F9I 2.45
